These data points were gathered from patent US10112907B2.

Test system: Scleraxis (Scx) gene transcriptional activation in TT-D6 Scx-luciferase (ScxL) cell line
Assay: SCX-LUC in vitro assay (Scx-luciferase reporter)
Assay type: cell-based
Conditions: Mus musculus, 96 h; Table 3; four days; read-out: Scx-Luc (EC50 μM)
Could you mark each record 1 if its EC50 falls strictly under 1 µM, and 0 if it equals or exceeds it?

Nc1n[nH]c2ccc(-c3ccc(S(=O)(=O)N4CC(F)(F)C[C@H]4CO)cc3Cl)c(Cl)c12 :: 1
Cc1cc(S(=O)(=O)N[C@H]2C[C@](O)(C(F)(F)F)C2)ccc1-c1ccc2[nH]nc(N)c2c1C :: 1
Cc1cc(S(=O)(=O)N[C@H]2C[C@](O)(C(F)(F)F)C2)ccc1-c1ccc2[nH]nc(N)c2c1Cl :: 1
Cc1cc(S(=O)(=O)N[C@H]2CCC[C@H]2O)ccc1-c1ccc2[nH]nc(N)c2c1C :: 1
Cc1cc(S(=O)(=O)N2CCC[C@@H]2CO)ccc1-c1ccc2[nH]nc(N)c2c1C :: 1

Qu. Does Cc1c(-c2ccc(S(=O)(=O)N3CC(F)(F)C[C@H]3CO)cc2F)ccc2[nH]nc(N)c12 have EC50 strictly under 1 µM?
Ans. 1

Qu. Does Cc1cc(S(=O)(=O)N2CC(C)(O)C2)ccc1-c1ccc2[nH]nc(N)c2c1C have EC50 strictly under 1 µM?
Ans. 0

Qu. Does Cc1cc(S(=O)(=O)N[C@@H]2CCC[C@@H]2O)ccc1-c1ccc2[nH]nc(N)c2c1Cl have EC50 strictly under 1 µM?
Ans. 1

Qu. Does Nc1n[nH]c2ccc(-c3ccc(S(=O)(=O)N4CC[C@@H](O)C4)cc3Cl)c(Cl)c12 have EC50 strictly under 1 µM?
Ans. 0

Qu. Does Cc1cc(S(=O)(=O)N[C@H]2C[C@H](O)C2)ccc1-c1ccc2[nH]nc(N)c2c1C have EC50 strictly under 1 µM?
Ans. 0
